- ASSAY_PROCEDURE: AUC measurement in oral administration, test with mice
- Assay type: in vivo
- ASSAY_CONTEXT: ICR mice, 30 mg/kg, 5% gum arabic suspension, plasma
METRIC_NAME: AUC∞ (µg·h/mL)

{"columns": ["MOLECULE", "MEASURED_NUMBER"],
 "data": [
  ["C#C[C@]1(O)CCC2C3C(CC[C@@]21C)c1ccc(O)cc1C[C@H]3CCCCCCCCC(CCCC(F)(F)C(F)(F)C(F)(F)C(F)(F)F)C(=O)O (single isomer, unassigned) [Compound 5]", 661.00],
  ["C#C[C@]1(O)CCC2C3C(CC[C@@]21C)c1ccc(O)cc1C[C@H]3CCCCCCCCC(CCCC(F)(F)C(F)(F)C(F)(F)C(F)(F)F)C(=O)O (single isomer, unassigned) [Compound 4]", 202.10],
  ["C[C@]12CC[C@@H]3c4ccc(O)cc4C[C@@H](CCCCCCCCC(CCCC(F)(F)C(F)(F)C(F)(F)C(F)(F)F)C(=O)O)[C@H]3[C@@H]1CC[C@@H]2O (single isomer, unassigned) [Control compound 2, reference compound]", 469.73],
  ["C[C@]12CC[C@@H]3c4ccc(O)cc4C[C@@H](CCCCCCCCC(CCCC(F)(F)C(F)(F)C(F)(F)C(F)(F)F)C(=O)O)[C@H]3[C@@H]1CCC2=O (single isomer, unassigned) [Compound 2]", 722.55]
]}
